Field: Agonistic activation (25 μM). Provide a value for each of the compounds that follow.
molecular target: hFXR-LBD (interaction with coactivator SRC-1) (Homo sapiens); construct: human FXRα-LBD (200-473 AA) was sub-cloned into vector pGBKT-7; expressed in transfected cells; host or cells: Saccharomyces cerevisiae strain AH109 (Clontech), co-transformed with pGBKT7-FXR LBD and pGADT7-SRC-1; test: Y2H agonist assay: SRC-1 recruitment to FXR-LBD (α-galactosidase readout); type: cell-based; settings: GAtreated/GADMSO (DMSO = 1.00), average of triplicate
Sequence (Q96RI1 214-486): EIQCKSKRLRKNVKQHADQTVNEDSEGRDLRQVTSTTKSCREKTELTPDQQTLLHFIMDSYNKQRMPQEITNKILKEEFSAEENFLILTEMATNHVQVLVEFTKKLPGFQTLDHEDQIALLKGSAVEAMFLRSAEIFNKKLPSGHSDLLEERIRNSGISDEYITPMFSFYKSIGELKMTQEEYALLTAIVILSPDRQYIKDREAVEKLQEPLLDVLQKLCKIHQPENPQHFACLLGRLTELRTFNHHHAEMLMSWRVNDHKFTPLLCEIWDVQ
One number for each entry.

Please go through the list and note Agonistic activation (25 μM) for each compound.
1. O=C(O)C=Cc1ccc(O)cc1 [Compound 3d, P-coumaric acid]
2. O=C(/C=C/CCc1ccccc1)c1ccc(O)cc1 [Compound 3c, Daphnenone]
3. O=C(CCCCc1ccccc1)c1ccc(O)cc1 [Compound 3a, Daphneone]
4. C/C(=C\CC[C@@H](C)[C@H]1CC[C@@]2(C)C3=CCC4C(C)(C)C(=O)CC[C@]4(C)C3CC[C@]12C)C(=O)O (stereo partly shown) [Compound 1c, Abiesatrine D]
5. C/C(=C/C(=O)C[C@@H](C)[C@H]1CC[C@@]2(C)C3=CCC4C(C)(C)C(=O)CC[C@]4(C)C3CC[C@]12C)C(=O)O (stereo partly shown) [Compound 1b]
6. C/C(=C/C(=O)C[C@@H](C)[C@]1(C)CC[C@@]2(C)C3=CCC4C(C)(C)[C@H](O)CC[C@]4(C)[C@@H]3CC=C21)C(=O)O (stereo partly shown) [Compound 1a, Abiesatrine B]
7. CC(C)(O)c1ccc2c(c1)C(=O)CC1[C@](C)(C(=O)O)CCC[C@]21C (stereo partly shown) [Compound 2a]

[1.08, 1.29, 1.03, 0.93, 1.12, 1.09, 1.05]
